Biological target: T1, Recombinant Human CTLA-4-Fc Chimera (BioLegend) (human, UniProt P16410 36-161, limits assumed)
T1 construct: Bought reagent; also called hCTLA-4; hCTLA-4 immobilized; not shown: human IgG1 Fc
T1 sequence (looked up): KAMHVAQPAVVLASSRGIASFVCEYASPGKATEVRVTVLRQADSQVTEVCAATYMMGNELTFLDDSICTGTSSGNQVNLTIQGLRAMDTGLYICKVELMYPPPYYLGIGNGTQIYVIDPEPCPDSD
Assay: SPR (Biacore), Fc-fused hCTLA-4 captured by anti-human IgG (Fc), scFv as analyte, single cycle kinetics
readout.type: koff (s⁻¹)
Reply numerically in s⁻¹, unit not repeated.

koff measured on anti-hCTLA-4scFv01 (not tagged) of single-expression strain C2TLB (scFv, Plasmid pC2TLB; PC2TL and PC7TL secrete the same scFv; Signal peptide SP67 left out; also called scFv derived from C2TLB strain; anti-hCTLA-4scFv01 in culture supernatants of PC2TL and PC7TL) scFv: AQVQLVESGGGVVQPGRSLRLSCAASGFTFSSYGMHWVRQAPGKGLEWVAVIWYDGSNKYYADSVKGRFTISRDNSKNTLYLQMNSLRAEDTAVYYCARDPRGATLYYYYYGMDVWGQGTTVTVSSGGGGSGGGGSGGGGSDIQMTQSPSSLSASVGDRVTITCRASQSINSYLDWYQQKPGKAPKLLIYAASSLQSGVPSRFSGSGSGTDFTLTISSLQPEDFATYYCQQYYSTPFTFGPGTKVEIK = 0.000961

// koff lookup, binder = anti-hCTLA-4scFv01-FLAG purified from single-expression strain C1F or from co-expression strain PC4 (scFv, Plasmid pP30SP50L5-hCTLA-4scFv01-FLAG (pC1F) and pPC4; PC4 and PC6 secrete the same scFv as C1F; Signal peptide SP50 left out; also called scFv derived from C1F strain; hCTLA-4scFv01-FLAG purified from PC4 strain) scFv: ATLTPQVQLVESGGGVVQPGRSLRLSCAASGFTFSSYGMHWVRQAPGKGLEWVAVIWYDGSNKYYADSVKGRFTISRDNSKNTLYLQMNSLRAEDTAVYYCARDPRGATLYYYYYGMDVWGQGTTVTVSSGGGGSGGGGSGGGGSDIQMTQSPSSLSASVGDRVTITCRASQSINSYLDWYQQKPGKAPKLLIYAASSLQSGVPSRFSGSGSGTDFTLTISSLQPEDFATYYCQQYYSTPFTFGPGTKVEIKDYKDDDDK , result: 0.000996

koff in this record for anti-hCTLA-4scFv01-FLAG purified from single-expression strain C2F (scFv, Plasmid pP30SP67L1-hCTLA-4scFv01-FLAG (pC2F); PC2 and PC7 secrete the same scFv; Signal peptide SP67 left out; also called scFv derived from C2F strain) scFv: AQVQLVESGGGVVQPGRSLRLSCAASGFTFSSYGMHWVRQAPGKGLEWVAVIWYDGSNKYYADSVKGRFTISRDNSKNTLYLQMNSLRAEDTAVYYCARDPRGATLYYYYYGMDVWGQGTTVTVSSGGGGSGGGGSGGGGSDIQMTQSPSSLSASVGDRVTITCRASQSINSYLDWYQQKPGKAPKLLIYAASSLQSGVPSRFSGSGSGTDFTLTISSLQPEDFATYYCQQYYSTPFTFGPGTKVEIKDYKDDDDK : 0.00103

koff measured on anti-hCTLA-4scFv01 (not tagged) of single-expression strain C1TLB (scFv, Plasmid pC1TLB; PC4TL and PC6TL secrete the same scFv; Signal peptide SP50 left out; also called scFv derived from C1TLB strain; anti-hCTLA-4scFv01 in culture supernatants of PC4TL and PC6TL) scFv: ATLTPQVQLVESGGGVVQPGRSLRLSCAASGFTFSSYGMHWVRQAPGKGLEWVAVIWYDGSNKYYADSVKGRFTISRDNSKNTLYLQMNSLRAEDTAVYYCARDPRGATLYYYYYGMDVWGQGTTVTVSSGGGGSGGGGSGGGGSDIQMTQSPSSLSASVGDRVTITCRASQSINSYLDWYQQKPGKAPKLLIYAASSLQSGVPSRFSGSGSGTDFTLTISSLQPEDFATYYCQQYYSTPFTFGPGTKVEIK = 0.00098

The reported koff of the binder anti-hCTLA-4scFv01 (not tagged) of single-expression strain C3TLB (scFv, Plasmid pC3TLB; PC3TL, PC5TL and PC8TL secrete the same scFv; Signal peptide SP68 left out; also called scFv derived from C3TLB strain; anti-hCTLA-4scFv01 in culture supernatants of PC3TL, PC5TL and PC8TL) scFv: DQVQLVESGGGVVQPGRSLRLSCAASGFTFSSYGMHWVRQAPGKGLEWVAVIWYDGSNKYYADSVKGRFTISRDNSKNTLYLQMNSLRAEDTAVYYCARDPRGATLYYYYYGMDVWGQGTTVTVSSGGGGSGGGGSGGGGSDIQMTQSPSSLSASVGDRVTITCRASQSINSYLDWYQQKPGKAPKLLIYAASSLQSGVPSRFSGSGSGTDFTLTISSLQPEDFATYYCQQYYSTPFTFGPGTKVEIK was 0.000996

Query anti-hCTLA-4scFv01-FLAG purified from single-expression strain C3F (scFv, Plasmid pP30SP68L1-hCTLA-4scFv01-FLAG (pC3F); PC3, PC5 and PC8 secrete the same scFv; also called scFv derived from C3F strain) scFv: DQVQLVESGGGVVQPGRSLRLSCAASGFTFSSYGMHWVRQAPGKGLEWVAVIWYDGSNKYYADSVKGRFTISRDNSKNTLYLQMNSLRAEDTAVYYCARDPRGATLYYYYYGMDVWGQGTTVTVSSGGGGSGGGGSGGGGSDIQMTQSPSSLSASVGDRVTITCRASQSINSYLDWYQQKPGKAPKLLIYAASSLQSGVPSRFSGSGSGTDFTLTISSLQPEDFATYYCQQYYSTPFTFGPGTKVEIKDYKDDDDK yields koff of 0.00103
